System: L1210 leukemia ip in BDF1 mice, survival T/C
Assay: NCI In Vivo Anticancer Drug Screen. Data for tumor model L1210 Leukemia (intraperitoneal) in B6D2F1 (BDF1) mice
Conditions: endpoint: mean survival time; dose: 25.0 mg/kg/injection; schedule: Q01DX009 (ip); vehicle: saline; higher = longer survival
Description: The antitumor activity of compounds was measured in mice bearing transplantable tumors. Survival or tumor size were measured and the results are expressed as the measurement made in the treated group (T) divided by the measurement made in the vehicle treated control group (C). The tumor model used in this assay is L1210 Leukemia (intraperitoneal) in B6D2F1 (BDF1) mice
Toxic doses and inconclusive results are not listed.
Assay endpoint: T/C

Query string: Report measured T/C; entry is CCN(CC)CCOC(=O)Nc1cccc(Cl)c1
Result string: 100 % of control

Query string: Report measured T/C; entry is O=C(O)CSC1=NCCN1
Result string: 91 % of control

Query string: Report measured T/C; entry is CC1CCc2ccccc2N1CCN (stereo unspecified)
Result string: 103 % of control

Query string: Report measured T/C; entry is Nc1cc(I)c2cccnc2c1O
Result string: 102 % of control

Query string: Report measured T/C; entry is C=CCNCCN1CCN(CCCN2c3ccccc3Sc3ccc(C(F)(F)F)cc32)CC1
Result string: 102 % of control

Query string: Report measured T/C; entry is CCc1ccccc1N/N=C(\Cl)C(C)=O
Result string: 95 % of control

Taken from PubChem BioAssay AID248.
